Test system: DU-145
Assay: NCI tumour cell line growth inhibition, 48 h
The source made the active and inactive calls. Rule as the data show it: active = GI50 up to about 1.1 µM and inactive = higher.
readout-label: GI50

// known answers, use as guide
NC(=O)C(=CNC(=S)Nc1cccc(C(F)(F)F)c1)C(N)=O ... > 100 µM (inactive)
O=[N+]([O-])c1cc(Cc2cc([N+](=O)[O-])c3cccnc3c2O)c(O)c2ncccc12 ... 9.89 µM (inactive)
COC(=O)c1ccc2c(c1)CC1(C2)Cc2cc3c(cc2C1=O)CCC3 (stereo not drawn) ... 57.7 µM (inactive)
Cn1c(SCc2ccc(F)cc2)nnc1C12CC3CC(CC(C3)C1)C2 ... 52 µM (inactive)
CNC(=O)N(C1=NCC(C)S1)c1ccc(C)c(C)c1 (stereo not drawn) ... 7.5 µM (inactive)
CC1OC(OC2C(OC(=O)[C@]34CCC(C)(C)C[C@H]3C3=CC[C@@H]5[C@@]6(C)CC[C@H](OC7OC(C(=O)O)C(O)C(O)C7O)C(C)(C)[C@@H]6CC[C@@]5(C)[C@]3(C)C[C@H]4O)OCC(O)C2O)C(O)C(O)C1OC1OCC(OC2OCC(O)C(O)C2O)C(O)C1O (stereo partly drawn) ... 11.3 µM (inactive)
O=C(C/N=C(\CN(c1ccccc1)c1ccccc1)Oc1c([N+](=O)[O-])cc([N+](=O)[O-])cc1[N+](=O)[O-])N1CCNCC1 ... > 100 µM (inactive)

Now for the molecule whose GI50 we want.
-- ask Field request: GI50 | item: COc1cc(S(=O)(=O)Nc2nc(-c3ccc(N)cc3)cs2)ccc1Cl
-- reply > 100 µM (inactive)

###

Tested on: SNB-19
Experiment: NCI tumour cell line growth inhibition, 48 h
Active and inactive are the calls of the source. No stated cut-off is given here; in the data, active = GI50 up to about 1.1 µM and inactive = higher.
Give measured GI50 for each item. Keep answers brief.

// known answers, use as guide
O=C(NCc1ccccc1)c1nn[nH]c1O ... > 100 µM (inactive)
C[C@]12CC/C(=N\O)C=C1CC[C@@H]1[C@@H]2CC[C@]2(C)C(=N/O)/C(=C/c3ccncc3)C[C@@H]12 ... 28.8 µM (inactive)
Oc1ccc2c(c1)OCC(O)(c1ccccc1O)C2 (stereo unspecified) ... > 100 µM (inactive)

Batch request: GI50 per item, same order as input.
1. Cc1nc2c(ccc3[nH]c4ccccc4c32)s1
2. Oc1ccc(-c2cn3cc(C(F)(F)F)ccc3n2)cc1
3. C/C=C/C(=O)[C@@H](O)C(C)C

-- reply
["37.8 µM (inactive)", "> 100 µM (inactive)", "> 100 µM (inactive)"]

###

Tested on: OVCAR-4
Assay: NCI tumour cell line growth inhibition, 48 h
Active and inactive are the calls of the source. No stated cut-off is given here; in the data, active = GI50 up to about 1.1 µM and inactive = higher.
readout-label: GI50

CCOC(=O)c1c(N2CCCC2)[nH]c(=O)c(C(c2ccc(N(C)C)cc2)c2c(O)c(C(=O)OCC)c(N3CCCC3)[nH]c2=O)c1O ... > 100 µM (inactive)
Cn1c(=O)c2c(nc(NCCCCl)n2CC(=O)NCCCCl)n(C)c1=O ... > 100 µM (inactive)
CC1=C(C(=O)Nc2ccccc2)C(c2ccc(C3C(C(=O)Nc4ccccc4)=C(C)NC(C)=C3C(=O)Nc3ccccc3)cc2)C(C(=O)Nc2ccccc2)=C(C)N1 ... 6.03 µM (inactive)
CCc1nc(N)nc(N)c1-c1ccc(NCCN)c([N+](=O)[O-])c1 ... 20.7 µM (inactive)
COC(=O)/C(=N/O)C(C(=O)C=C(C)C)C(=O)C(=O)Nc1nc2ccc([N+](=O)[O-])cc2s1 (stereo not drawn) ... 31.8 µM (inactive)

Batch request: GI50 per item, same order as input.
1. Cc1cccc(NC(=O)CSc2nnc(-c3ccc(/N=C\c4ccc(Cl)cc4)cc3)o2)c1
2. O=c1ccn([C@@H]2C=C(CO)[C@@H](O)[C@H]2O)c(=O)[nH]1
3. Cc1c(C)c2ccc(OC(C)C(=O)O)cc2oc1=O (stereo not drawn)

-- reply
["69.2 µM (inactive)", "> 625 µM (inactive)", "> 100 µM (inactive)"]

Origin of values: ChEMBL document CHEMBL1201862
